Experiment Summary: Oral bioavailability in Nu/Nu mouse at 20 mg/ kg
Format: ADME, organism-based
Condition Notes: in vivo
Property Label: bioavailability (%)
The response must be a number in % with no trailing unit.

### Prompt Would you mind telling me what bioavailability value was observed for C=CC(=O)Nc1cccc(Nc2nc(Nc3ccc(N4CCN(C(C)=O)CC4)cc3OC)ncc2C(F)(F)F)c1 ?
### Response 65

* * *

Experiment Summary: Apparent half life in patient with EGFR TKI-resistant NSCLC at 20 to 240 mg, po qd
Assay type: ADME, organism-based
Condition Notes: human, in vivo, read-out: t1/2(app) (converted)
Property Label: half-life (h)
The response must be a number in h with no trailing unit.

### Prompt Would you mind telling me what half-life value was observed for C=CC(=O)Nc1cc(Nc2nccc(-c3cn(C)c4ccccc34)n2)c(OC)cc1N(C)CCN(C)C ?
### Response 55
